# TARGET_ENTITY: recombinant human DR 5 receptor Fc fusion protein (R&D Systems) (human)
# Sequence (chain, as listed by the source): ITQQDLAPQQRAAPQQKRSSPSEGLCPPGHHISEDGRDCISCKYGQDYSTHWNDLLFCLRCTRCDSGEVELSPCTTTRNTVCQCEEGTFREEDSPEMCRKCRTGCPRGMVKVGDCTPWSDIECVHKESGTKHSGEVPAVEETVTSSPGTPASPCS
# EXPERIMENTAL_PROTOCOL: SPR (Biacore), captured DR5/Fc
READOUT_TYPE: Ka (M⁻¹)
Record the value in M⁻¹, omitting the unit from your answer.

Known results for binders:
So what's the measured Ka for this one? 2a1a (=B9F) DR 5 ATRIMER (designed binder, Homotrimer (ATRIMER) of this chain; one protomer is given., also called 029-15.B9F; not shown: C-terminal tag (His/Myc of pANA4, HA-StrepII of pANA10, or that of pANA19)) EPPTQKPKKIVNAKKDVVNTKMFEELKSRLDTLAQEVALLKEQQALQTVCLKGTKVHMKCFLAFTQTKTFHEASEDCISRGGTLSTPQTGSENDALYEYLRQSVGNEAEIWLGLNKRVWYRGWVDMTGARIAYKNWETEITAQPDGGMRRRRENCAVLSGAANGKWFDKRCRDQLPYICQFGIV
2.38e+07

So what's the measured Ka for this one? 9b3d (=B3D) DR 5 ATRIMER (designed binder, Homotrimer (ATRIMER) of this chain; one protomer is given., also called 029-15.B3D; not shown: C-terminal tag (His/Myc of pANA4, HA-StrepII of pANA10, or that of pANA19)) EPPTQKPKKIVNAKKDVVNTKMFEELKSRLDTLAQEVALLKEQQALQTVCLKGTKVHMKCFLAFTQTKTFHEASEDCISRGGTLSTPQTGSENDALYEYLRQSVGNEAEIWLGLNELRTDGLWVDMTGARIAYKNWETEITAQPDGGVMRRSENCAVLSGAANGKWFDKRCRDQLPYICQFGIV
1.11e+06

So what's the measured Ka for this one? 8b6b (=A1H) DR 5 ATRIMER (designed binder, Homotrimer (ATRIMER) of this chain; one protomer is given., also called 029-15.A1H; not shown: C-terminal tag (His/Myc of pANA4, HA-StrepII of pANA10, or that of pANA19)) EPPTQKPKKIVNAKKDVVNTKMFEELKSRLDTLAQEVALLKEQQALQTVCLKGTKVHMKCFLAFTQTKTFHEASEDCISRGGTLSTPQTGSENDALYEYLRQSVGNEAEIWLGLNRAVLRPRWVDMTGARIAYKNWETEITAQPDGGWVLGGKNCAVLSGAANGKWFDKRCRDQLPYICQFGIV
2.56e+07

***
So what's the measured Ka for this one? 1a7b (=A8G) DR 5 ATRIMER (designed binder, Homotrimer (ATRIMER) of this chain; one protomer is given., also called 029-15.A8G; not shown: C-terminal tag (His/Myc of pANA4, HA-StrepII of pANA10, or that of pANA19)) EPPTQKPKKIVNAKKDVVNTKMFEELKSRLDTLAQEVALLKEQQALQTVCLKGTKVHMKCFLAFTQTKTFHEASEDCISRGGTLSTPQTGSENDALYEYLRQSVGNEAEIWLGLNRAWLRPRWVDMTGARIAYKNWETEITAQPDGGTLVSGENCAVLSGAANGKWFDKRCRDQLPYICQFGIV
6.43e+07
